Origin of the recorded values: PubChem BioAssay

# System: Noggin (protein binding on small-molecule microarray)
# protocol-summary: Noggin binders on small-molecule microarray, primary screen, biochemical, 635/667 nm fluorescence (AID 1095);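 note: score merges 667 nm feature fluorescence with signal to noise over triplicate slides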
# condition: 635 nm fluorescence, higher = more signal
measured-attribute: composite z-score
API doc: respond with a numeric literal and nothing else, no unit.

See these solved cases before continuing.
{"compound": "CO[C@H]1O[C@H](CO)[C@@H](OC(=O)CCc2ccccc2)[C@H](OC(=O)c2cc3ccccc3[nH]2)[C@H]1OC(=O)c1cc2ccccc2[nH]1", "result": 0.565}
{"compound": "C[C@]1(C(=O)NCC(F)(F)F)c2ccccc2C(=O)N(Cc2ccccc2)[C@H]1c1ccc(CO)cc1", "result": -1.45}
{"compound": "O=C(O)[C@@H]1C[C@@H]2C(=O)N3CCC[C@H]3C(=O)N2[C@@H]1c1cccc(OCCO)c1", "result": 1.95}
{"compound": "C=C(C)C1CCC(C(O)C2C=CC3C(=O)N(C)C(=O)C3N2Nc2cc(OC)c(OC)c(OC)c2)CC1 (stereo unspecified)", "result": 0.205}
{"compound": "O=C(CS)NCCCCCCNC(=O)[C@@H]1C[C@@H]2C(=O)NCC(=O)N2[C@@H]1c1ccc(O)cc1", "result": -0.728}

Q. Param item = CN1C(=O)C2C=CC(C(O)c3ccc(I)cc3)N(Nc3ccccc3)C2C1=O (stereo unspecified) ; retrieve measured composite z-score.
A. -0.111

Q. Param item = CN1C(=O)C2C=CC(C(O)c3cc(C(F)(F)F)cc(C(F)(F)F)c3)N(Nc3ccccc3)C2C1=O (stereo unspecified) ; retrieve measured composite z-score.
A. 0.325

Q. Param item = C=C(CCCC)C(=O)CC[C@@H](OC(=O)c1cccnc1)c1ccc(OCCO)cc1 ; retrieve measured composite z-score.
A. 1.93
